The origin of these recorded values is patent US11358953B2.

# IC50 values compiled below
TEST TARGET: UniProt P0DTD1
PROTOCOL DESCRIPTION: SARS-CoV-2 3C-like (3CL) protease fluorescence assay (FRET)
STATED CONDITIONS: recombinant SARS-CoV-2 3CL-protease 10 nM, 30 min preincubation at RT, substrate 40 μM, duplicate

{"MOLECULE": "CC(C)(C)[C@H](NC(=O)Cc1ccccc1)C(=O)N1C[C@H]2[C@@H]([C@H]1C(=O)N[C@H](C#N)C[C@@H]1CCNC1=O)C2(C)C [Ex24]", "IC50": "< 100 nM"}
{"MOLECULE": "COc1cccc2[nH]c(C(=O)N3C[C@@H]4CCC[C@@H]4[C@H]3C(=O)N[C@@H](C[C@@H]3CCNC3=O)C(=O)CCl)cc12 [Ex1]", "IC50": "100 to 1000 nM"}
{"MOLECULE": "CC(C)(C)[C@H](NC(=O)C1CCCC1)C(=O)N1C[C@H]2[C@@H]([C@H]1C(=O)N[C@H](C#N)C[C@@H]1CCNC1=O)C2(C)C [Ex23]", "IC50": "< 100 nM"}
